target: Histone deacetylase 11 (Homo sapiens, UniProt Q96DB2); assay: HDAC Inhibition Assays: This example describes in vitro inhibition properties of exemplary HDAC11 inhibitors for various HDACs. HDAC inhibition assays were performed using an electrophoretic mobility shift assay at Nanosyn, Inc. (Santa Clara, Calif.). Full length human recombinant HDAC proteins were expressed in the baculoviral system and purified by affinity chromatography. A human recombinant HDAC3 was co-expressed with nuclear receptor corepressor (Ncor2). The following peptide substrates were used: FAM-RHKK(Ac)-NH2 for HDAC3, HDAC6 and HDAC8; FITC-H3K27(Ac)-NH2 for HDAC1, HDAC2 and HDAC10; FAM-RHKK(tri-fluor-Ac)-NH2 for HDAC4, HDAC5, HDAC7, HDAC9 and HDAC11. Reactions consisting of compound, enzyme, and substrate were performed in reaction buffer (comprised of 100 mM HEPES, pH7.5, 25 mM KCl, 0.1% bovine serum albumin, 0.01% Triton X-100) at 25° C. and quenched by the addition of termination buffer (100 mM HEPES, pH7.5, 0.01% Triton X-100, 0.05% SDS). The fluorescence intensity of the electrophoretically separated de-acetylated product and substrate peptide were measured and analyzed using the LabChip® 3000 microfluidic electrophoresis instrument (Perkin Elmer/Caliper Life Sciences). The IC50 values of inhibitors were determined by fitting the %-inhibition curves with 4 parameter dose-response model using XLfit 4 software (IDBS).
Sequence (Q96DB2 whole entry): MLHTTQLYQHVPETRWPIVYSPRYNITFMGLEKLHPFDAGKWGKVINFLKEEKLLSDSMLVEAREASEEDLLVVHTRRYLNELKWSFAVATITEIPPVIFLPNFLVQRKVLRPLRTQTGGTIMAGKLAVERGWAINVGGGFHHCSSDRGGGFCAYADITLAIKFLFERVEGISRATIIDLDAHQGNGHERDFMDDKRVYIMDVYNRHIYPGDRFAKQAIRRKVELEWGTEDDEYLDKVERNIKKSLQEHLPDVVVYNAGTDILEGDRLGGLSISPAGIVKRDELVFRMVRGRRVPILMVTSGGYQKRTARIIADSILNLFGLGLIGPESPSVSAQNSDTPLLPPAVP
Value Type: IC50

query: // returns reported IC50 for input `N#Cc1cc2nc(Nc3cccc(C(=O)NO)c3)[nH]c2cc1C(F)(F)F`
result: < 0.5 µM
